# method: chemical genetic growth profiling, strain panel (AID 1159580);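 also: tested at 20 µM; growth read once vehicle control cultures reached saturation at 30 °C; 1 = growth at the plate median or of vehicle wells; lower values mean less growth of the strain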
# condition.info: S. cerevisiae deletion strains, growth OD, locus YNL197C, strain WHI3, stronger effect = lower value
In all, about 5,500 compounds went through this assay and about 2,000 (36%) were called active. Roughly 18% stayed inconclusive and do not appear here. Some of the results follow.

{"columns": ["chem.smiles", "normalized growth"],
 "data": [
  ["O=C(O)CN(CCOCCOCCN(CC(=O)O)CC(=O)O)CC(=O)O", "1 (inactive)"],
  ["COc1ccccc1N1CCN(CCCCN2C(=O)c3ccccc3C2=O)CC1", "0.981 (inactive)"],
  ["COc1ccccc1N1CCN(CCN(C(=O)c2ccc(F)cc2)c2ccccn2)CC1", "0.998 (inactive)"],
  ["Nc1nc2c(ncn2COC(CO)CO)c(=O)[nH]1", "1.01 (inactive)"],
  ["COc1ccccc1N1CCN(CCCNc2cc(=O)n(C)c(=O)n2C)CC1", "1 (inactive)"],
  ["O=C(O)C1=CC(=C(c2ccc(O)c(C(=O)O)c2)c2ccc(O)c(C(=O)O)c2)C=CC1=O", "1 (inactive)"],
  ["O=C(O)CN(CCN(CC(=O)O)CC(=O)O)CCN(CC(=O)O)CC(=O)O", "1.02 (inactive)"],
  ["COc1ccccc1N1CCN(CCN(C(=O)c2ccc(I)cc2)c2ccccn2)CC1", "0.996 (inactive)"]
]}

----------
# method: chemical genetic growth profiling, strain panel (AID 1159580);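 also: tested at 20 µM; growth read once vehicle control cultures reached saturation at 30 °C; 1 = growth at the plate median or of vehicle wells; lower values mean less growth of the strain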
# condition.info: S. cerevisiae deletion strains, growth OD, locus YBR171W, strain sec66, stronger effect = lower value
In all, about 5,500 compounds went through this assay and about 2,000 (36%) were called active. Roughly 18% stayed inconclusive and do not appear here. This is one part of the list.
Overview of reported normalized growth across a group of compounds:
reported.property: normalized growth

{"columns": ["compound", "obs.value"],
 "data": [
  ["O=C(Oc1cccc2cccnc12)c1ccccc1", 0.917],
  ["Nc1ccc(S(=O)(=O)Nc2ncccn2)cc1", 0.973],
  ["C[C@@H]1CC[C@@]23CCC4(C)[C@@](C=CC5[C@@]6(C)CC[C@H](O)C(C)(C)C6CC[C@]54C)(OC2=O)C3[C@H]1C (stereo partly drawn)", 1],
  ["CO[C@@H]1[C@@H](OC(N)=O)[C@@H](O)[C@H](Oc2ccc3c(O)c(NC(=O)c4ccc(O)c(CC=C(C)C)c4)c(=O)oc3c2C)OC1(C)C", 1.06],
  ["NC[C@H]1O[C@H](O[C@H]2[C@H](O)[C@@H](O[C@H]3O[C@H](CO)[C@@H](O)[C@H](N)[C@H]3O)[C@H](N)C[C@@H]2N)[C@H](N)[C@@H](O)[C@@H]1O", 0.989],
  ["CC1(C)C(O)CC(=O)C2(C)C1CC(O)C1(C)C2CCC2(C)C(c3ccoc3)OC(=O)C3OC321 (stereo not drawn)", 0.995],
  ["CC(=O)Oc1ccccc1C(=O)Oc1ccccc1C(=O)O", 1],
  ["CC(=O)O[C@@H]1c2c(ccc3ccc(=O)oc23)OC(C)(C)[C@@H]1OC(=O)CC(C)C", 0.974]
]}

----------
# method: chemical genetic growth profiling, strain panel (AID 1159580);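 also: tested at 20 µM; growth read once vehicle control cultures reached saturation at 30 °C; 1 = growth at the plate median or of vehicle wells; lower values mean less growth of the strain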
# condition.info: S. cerevisiae deletion strains, growth OD, locus YLR320W, strain mms22
Out of some 5,500 compounds screened, about 2,000 (36%) were called active. Roughly 18% stayed inconclusive and do not appear here. Cut-off read from the data, not from the text of the source: active = normalized growth mostly below about 0.91 (no sharp cut-off); inconclusive = no clear call, values can overlap the other calls; inactive = mostly above about 0.92. The list shows a part of the results.
Classes used: yes for active, no for inactive

{"columns": ["molecule", "category.label"],
 "data": [
  ["CC[C@@]1(O)C(=O)OCc2c1cc1n(c2=O)Cc2cc3ccccc3nc2-1", "yes"],
  ["CC1(C)O[C@@H]2CC3C4C[C@H](F)C5=CC(=O)CC[C@]5(C)C4[C@@H](O)C[C@]3(C)[C@]2(C(=O)CO)O1 (some centres not stated)", "no"],
  ["Cc1ccccc1N1C(=O)c2cc(S(N)(=O)=O)c(Cl)cc2NC1C (configuration not stated)", "no"],
  ["CC1Cc2ccccc2N1NC(=O)c1ccc(Cl)c(S(N)(=O)=O)c1 (configuration not stated)", "no"],
  ["CC1(C)[C@@H]2CC[C@@]1(C)C(=O)C2", "no"],
  ["CC(C)Nc1nc(Cl)nc(NC(C)C)n1", "no"],
  ["COc1nc(NC(C)C)nc(NC(C)C)n1", "no"],
  ["C[C@@H]1CCC2[C@](C)(CO)[C@@H](O)CC[C@]2(C)[C@@]12CC[C@@](CO)(CCO)O2 (some centres not stated)", "no"],
  ["CSc1nc(NC(C)C)nc(NC(C)C)n1", "no"],
  ["C[C@@H]1CC[C@@]23CCC4(C)[C@@](C=CC5[C@@]6(C)CC[C@H](O)C(C)(C)C6CC[C@]54C)(OC2=O)C3[C@H]1C (some centres not stated)", "no"],
  ["COc1c(O)cc2c(c1O)[C@H]1O[C@H](CO)[C@@H](O)[C@H](O)[C@@H]1OC2=O", "no"],
  ["C/C=C/CC(C)C(O)C1C(=O)NC(CC)C(=O)N(C)CC(=O)N(C)C(CC(C)C)C(=O)NC(C(C)C)C(=O)N(C)C(CC(C)C)C(=O)NC(C)C(=O)NC(C)C(=O)N(C)C(CC(C)C)C(=O)N(C)C(CC(C)C)C(=O)N(C)C(C(C)C)C(=O)N1C (configuration not stated)", "no"]
]}
